tested-on: human folate receptor alpha (human)
Sequence (P15328 whole entry): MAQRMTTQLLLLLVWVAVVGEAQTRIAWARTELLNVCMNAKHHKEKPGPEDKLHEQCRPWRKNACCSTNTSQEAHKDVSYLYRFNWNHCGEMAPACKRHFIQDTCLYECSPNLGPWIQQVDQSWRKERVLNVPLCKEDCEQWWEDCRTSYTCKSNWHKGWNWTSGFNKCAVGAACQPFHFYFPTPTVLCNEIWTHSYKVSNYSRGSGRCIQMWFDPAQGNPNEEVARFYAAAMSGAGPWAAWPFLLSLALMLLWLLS
test: ELISA
Entries annotated with measured EC50
Give the number first and the unit second.

MORAb003-DBCO-PEG4 VCP eribulin (antibody, V domains shown) VH: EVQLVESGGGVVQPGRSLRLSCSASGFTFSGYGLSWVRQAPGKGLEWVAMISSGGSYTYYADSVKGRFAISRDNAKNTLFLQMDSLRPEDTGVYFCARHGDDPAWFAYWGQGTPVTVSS VL: DIQLTQSPSSLSASVGDRVTITCSVSSSISSNNLHWYQQKPGKAPKPWIYGTSNLASGVPSRFSGSGSGTDYTFTISSLQPEDIATYYCQQWSSYPYMYTFGQGTKVEIK | 0.016 µg/mL
MORAb003-DBCO-PEG4 eribulin (antibody, V domains shown) VH: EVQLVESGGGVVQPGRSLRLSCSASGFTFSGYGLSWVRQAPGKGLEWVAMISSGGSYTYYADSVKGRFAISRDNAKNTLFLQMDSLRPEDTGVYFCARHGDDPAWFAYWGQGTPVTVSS VL: DIQLTQSPSSLSASVGDRVTITCSVSSSISSNNLHWYQQKPGKAPKPWIYGTSNLASGVPSRFSGSGSGTDYTFTISSLQPEDIATYYCQQWSSYPYMYTFGQGTKVEIK | 0.0133 µg/mL
MORAb003-ER1236941 (antibody, V domains shown) VH: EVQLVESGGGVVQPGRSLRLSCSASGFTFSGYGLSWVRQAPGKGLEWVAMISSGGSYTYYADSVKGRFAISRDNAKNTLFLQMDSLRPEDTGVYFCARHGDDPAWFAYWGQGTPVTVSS VL: DIQLTQSPSSLSASVGDRVTITCSVSSSISSNNLHWYQQKPGKAPKPWIYGTSNLASGVPSRFSGSGSGTDYTFTISSLQPEDIATYYCQQWSSYPYMYTFGQGTKVEIK | 0.013 µg/mL
MORAb003-DBCO-ER1138856 (antibody, V domains shown) VH: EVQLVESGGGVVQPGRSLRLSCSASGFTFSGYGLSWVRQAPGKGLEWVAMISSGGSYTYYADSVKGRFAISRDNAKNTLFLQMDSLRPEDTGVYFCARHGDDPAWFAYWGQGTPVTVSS VL: DIQLTQSPSSLSASVGDRVTITCSVSSSISSNNLHWYQQKPGKAPKPWIYGTSNLASGVPSRFSGSGSGTDYTFTISSLQPEDIATYYCQQWSSYPYMYTFGQGTKVEIK | 0.015 µg/mL

QUERY: Consider the binder MORAb003-DBCO-PEG2 eribulin (antibody, V domains shown) VH: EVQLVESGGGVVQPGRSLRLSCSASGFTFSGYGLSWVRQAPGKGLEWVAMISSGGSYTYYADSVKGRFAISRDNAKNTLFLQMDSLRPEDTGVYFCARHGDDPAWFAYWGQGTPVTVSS VL: DIQLTQSPSSLSASVGDRVTITCSVSSSISSNNLHWYQQKPGKAPKPWIYGTSNLASGVPSRFSGSGSGTDYTFTISSLQPEDIATYYCQQWSSYPYMYTFGQGTKVEIK . State its measured EC50.
RESULT: 0.0191 µg/mL

QUERY: Consider the binder MORAb003-ER1235638 (antibody, V domains shown) VH: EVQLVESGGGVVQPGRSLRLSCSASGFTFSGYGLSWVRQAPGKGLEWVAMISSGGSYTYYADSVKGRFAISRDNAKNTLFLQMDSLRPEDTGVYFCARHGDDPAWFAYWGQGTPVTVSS VL: DIQLTQSPSSLSASVGDRVTITCSVSSSISSNNLHWYQQKPGKAPKPWIYGTSNLASGVPSRFSGSGSGTDYTFTISSLQPEDIATYYCQQWSSYPYMYTFGQGTKVEIK . State its measured EC50.
RESULT: 0.0153 µg/mL
